The compounds listed here are annotated with their CC50 at 72 h.
methodSummary: Cytotoxicity against bovine MDBK cells after 3 days by CellTitre-Blue assay
Assay type: cell-based, Bos taurus
measurementParameters: cattle

Worked set:
Q. Fill in: CC50 at 72 h of CCc1ccccc1C(=O)N1CCC[C@H]1C(=O)Nc1ccc(/C=C/c2ccc(NC(=O)[C@@H]3CCCN3C(=O)c3ccccc3CC)cc2)cc1 is ___
A. > 10 µM

Q. Fill in: CC50 at 72 h of O=C(Nc1ccc(/C=C/c2ccc(NC(=O)[C@@H]3CCCN3C(=O)c3nccc4ccccc34)cc2)cc1)[C@@H]1CCCN1C(=O)c1nccc2ccccc12 is ___
A. > 10 µM

Q. Fill in: CC50 at 72 h of O=C(Nc1ccc(-c2cnc(-c3ccc(NC(=O)[C@@H]4CCCN4C(=O)Cc4ccccc4)cc3)o2)cc1)[C@@H]1CCCN1C(=O)Cc1ccccc1 is ___
A. 3.3 µM

***
Q. Fill in: CC50 at 72 h of O=C(Nc1ccc(/C=C/c2ccc(NC(=O)[C@@H]3CCCN3C(=O)c3nncc4ccccc34)cc2)cc1)[C@@H]1CCCN1C(=O)c1nncc2ccccc12 is ___
A. > 10 µM

Q. Fill in: CC50 at 72 h of COc1cccc2c(C(=O)N3CCC[C@H]3C(=O)Nc3ccc(C#Cc4ccc(NC(=O)[C@@H]5CCCN5C(=O)c5nc(Cl)cc6c(OC)cccc56)cc4)cc3)nc(Cl)cc12 is ___
A. > 10 µM

Q. Fill in: CC50 at 72 h of O=C(Nc1ccc(/C=C/c2ccc(NC(=O)[C@@H]3CCCN3C(=O)c3nccc4c(Cl)cccc34)cc2)cc1)[C@@H]1CCCN1C(=O)c1nccc2c(Cl)cccc12 is ___
A. > 10 µM

----------
Test system: Hepatitis C virus
methodSummary: Antiviral activity against HCV genotype 1a H77c infected in human HuH7 cells after 3 days by luciferase reporter gene assay
Type: functional, organism-based, Hepacivirus hominis
measurementParameters: Huh-7, 72 h
outcomeMeasure: EC50 (nM)
Give a bare numeral; the unit nM is implied.

Worked set:
Q. Fill in: EC50 of COc1cccc2c(C(=O)N3CCC[C@H]3C(=O)Nc3ccc(C#Cc4ccc(NC(=O)[C@@H]5CCCN5C(=O)c5nc(Cl)cc6c(OC)cccc56)cc4)cc3)nc(Cl)cc12 is ___
A. 18

Q. Fill in: EC50 of O=C(Nc1ccc(/C=C/c2ccc(NC(=O)[C@@H]3CCCN3C(=O)c3ccccc3)cc2)cc1)[C@@H]1CCCN1C(=O)c1ccccc1 is ___
A. 6300

Proceeding to the next compound to report its EC50.
Q. Fill in: EC50 of COc1cccc2c(C(=O)N3CCC[C@H]3C(=O)Nc3ccc(-c4cnc(-c5ccc(NC(=O)[C@@H]6CCCN6C(=O)c6nc(Cl)cc7c(OC)cccc67)cc5)o4)cc3)nc(Cl)cc12 is ___
A. 52
